- Target entity: HLA-A*31:01
- Assay: IEDB peptide-MHC binding, purified MHC/competitive/radioactivity; filed as Kd, often an IC50 or EC50 that approximates it; bounds were set here for any values at or beyond the usual limits of such assays
- Applied conditions: source organism: Dengue virus 3 Martinique/1243/1999
Quantity kind: Kd (nM)
Give the number; nM is assumed, so skip it.

Report Kd, nothing else, for this sequence: KSGAIKVLK 8.84

###

- Target entity: HLA-A*29:02
- Assay: IEDB peptide-MHC binding, purified MHC/competitive/fluorescence; filed as Kd, often an IC50 or EC50 that approximates it; bounds were set here for any values at or beyond the usual limits of such assays
- Applied conditions: source organism: Burkholderia vietnamiensis G4
pKd: −log10 of the molar value.
Quantity kind: pKd

Report pKd, nothing else, for this sequence: GVNDTEAHA ≤ 4.70
